I'd appreciate it if you could supply pIC50 values for the items below.
- tested.system: HLA-A*68:02
- method.notes: IEDB peptide-MHC binding, purified MHC/competitive/radioactivity; bounds were set here for any values at or beyond the usual limits of such assays
- settings: source organism: Vaccinia virus WR
One number for each entry, as −log10 of the molar value.

Solved entries:
LINLVQYRI :: 5.76
YIESKAKQL :: 5.87
NVIGLIVIL :: 9.77

With those in mind, consider the next sequence.
Briefly, pIC50 measured for VISTIANSNI : 6.10

---

- tested.system: HLA-A*02:06
- method.notes: IEDB peptide-MHC binding, purified MHC/competitive/radioactivity; bounds were set here for any values at or beyond the usual limits of such assays
- settings: source organism: Vaccinia virus WR
pIC50: −log10 of the molar value.
Values of pIC50 greater than or equal to 6 map to condition met; values below map to condition not met.

RLFTRCAVI :: condition not met

QUERY: Test whether the sequence VIKLVKSLV records pIC50 of 6 or higher.
RESULT: condition not met

QUERY: Test whether the sequence ILLILSCIFA records pIC50 of 6 or higher.
RESULT: condition met

QUERY: Test whether the sequence HIKTIAVSV records pIC50 of 6 or higher.
RESULT: condition not met

QUERY: Test whether the sequence STTENAAYQV records pIC50 of 6 or higher.
RESULT: condition met

QUERY: Test whether the sequence ILSNKLLYAA records pIC50 of 6 or higher.
RESULT: condition met

QUERY: Test whether the sequence TLIQYRQQL records pIC50 of 6 or higher.
RESULT: condition not met

---

- tested.system: HLA-A*02:01
- method.notes: IEDB peptide-MHC binding, purified MHC/competitive/radioactivity; bounds were set here for any values at or beyond the usual limits of such assays
- settings: source organism: Vaccinia virus WR
readout: IC50

Solved entries:
KIIKKMEDMV :: 2670 nM
YLKEYIPKA :: 1.7 nM
EILGIAHLL :: 4330 nM
GMSIVCIVA :: 83 nM

Could you report IC50 for every entry in the following list?
1. LLISMYCSKT
2. IICEDAMYYA
3. YIAGLKIEEI
4. FILIFNIIV
5. TVMVKINPTL
6. SLHSLSVETI
7. SQFSYKELYV
8. FQYVSYSNFI

RESULT:
1. 1150 nM
2. 23 nM
3. 9.5 nM
4. 3.2 nM
5. 114 nM
6. 95 nM
7. 121 nM
8. 1450 nM

Could you report IC50 for every entry in the following list?
1. DLYDYITRI
2. MLNFSIYSV
3. KLGNLLLLI
4. VLNIVLFIL
5. FLVGVAIILV

RESULT:
1030 nM
0.15 nM
0.43 nM
393 nM
7.6 nM

---

- tested.system: HLA-A*68:02
- method.notes: IEDB peptide-MHC binding, cellular MHC/competitive/fluorescence; bounds were set here for any values at or beyond the usual limits of such assays
- settings: source organism: Vaccinia virus WR
readout: pIC50
Give bare numbers, as −log10 of the molar value.

Solved entries:
YLLGDSDSVA :: 4.97
YVLFVKKML :: 4.94
LLKCVSDSWL :: 5.01
ALWDSNFFT :: 5.13
KTPVIVVPVI :: 4.44

Could you report pIC50 for every entry in the following list?
1. LISILMIFI
2. ITDQTVNICI
3. ATLNTLITL
4. TILATLNTL
5. ITLILSNKL
6. IIRVTTELNI
7. VTDKTAYIGT
8. PTEMVDVSM

RESULT:
1: 4.98; 2: 4.29; 3: 5.27; 4: 4.73; 5: 5.06; 6: 4.79; 7: 5.19; 8: 4.28
